MIC listing for selected compounds.
# Tested on: Staphylococcus aureus
# assay: Antimicrobial activity against Staphylococcus aureus SA-1199B expressing wild type norA by microdilution method
# Format: organism-based
# run.parameters: in vivo
observable: MIC

                              smiles_record          tested_target  observable  readout_value
0  CCCOc1ccc(-c2cc(OCCN3CCc4cc(OC)c(OC)cc4C3)c3cc(OC)c(OC)cc3n2)cc1  Staphylococcus aureus         MIC     > 100 mg/L
1  CCCOc1ccc(-c2cc(OCCN(CC)CC)c3c(OC)cc(OC)cc3n2)cc1  Staphylococcus aureus         MIC     > 100 mg/L
2  CCCOc1ccc(-c2cc(OCCN(CC)CC)c3cc(OC)cc(OC)c3n2)cc1  Staphylococcus aureus         MIC     > 100 mg/L
3  CCCOc1ccc(-c2cc(OCCN(CC)CC)c3cc(OC)c(OC)cc3n2)cc1  Staphylococcus aureus         MIC     > 100 mg/L
4  CCCOc1ccc(-c2cc(OCCN3CCCCC3)c3ccc(OC)cc3n2)cc1  Staphylococcus aureus         MIC     > 100 mg/L

* * *

# tested.target: Quinolone resistance protein NorA (Staphylococcus aureus) (UniProt P0A0J7)
# assay: Inhibition of NorA in Staphylococcus aureus SA-1199B expressing GrlA A116E mutant assessed as minimal potentiating drug concentration causing 8 fold reduction in ciprofloxacin MIC by microdilution method based Checkerboard assay
observable: Activity

>>> df
                              smiles_record  observable  readout_value
0  COC(=O)[C@H]1[C@H]2C[C@@H]3c4[nH]c5cc(OC)ccc5c4CCN3C[C@H]2C[C@@H](OC(=O)c2cc(OC)c(OC)c(OC)c2)[C@@H]1OC    Activity    > 100 µg/mL
1  CCCOc1ccc(-c2cc(OCCN3CCN(Cc4ccccc4)CC3)c3ccc(OC)cc3n2)cc1    Activity    > 100 µg/mL
2  CCCOc1ccc(-c2cc(OCCN3CCc4cc(OC)c(OC)cc4C3)c3c(OC)cc(OC)cc3n2)cc1    Activity    < 100 µg/mL
3  CCCOc1ccc(-c2cc(OCCN3CCCCCC3)c3cc(OC)ccc3n2)cc1    Activity   < 3.13 µg/mL
